Origin of measurements: ChEMBL document CHEMBL3817824

target: Tyrosine-protein kinase ABL2 (Homo sapiens, UniProt P42684)
reported property: IC50

IC50 for `CN1C(=O)COc2c1cnc1ccc(Sc3nnc4c(F)cc(-c5cnn(C)c5)cn34)cc21` ?
> 30 µM

----------
molecular target: Mitogen-activated protein kinase 14 (Homo sapiens, UniProt Q16539); assay: Inhibition of p38alpha (unknown origin) incubated for 1 hr by spectrophotometric analysis
reported property: IC50

Request: IC50, test system Mitogen-activated protein kinase 14 (Homo sapiens, UniProt Q16539), entry `CN1C(=O)COc2c1cnc1ccc(Sc3nnc4c(F)cc(-c5cnn(C)c5)cn34)cc21`
> 30 µM

----------
molecular target: Tyrosine-protein kinase Fer (Homo sapiens, UniProt P16591)
reported property: IC50

Record lookup: for Tyrosine-protein kinase Fer (Homo sapiens, UniProt P16591), what IC50 belongs to `CN1C(=O)COc2c1cnc1ccc(Sc3nnc4c(F)cc(-c5cnn(C)c5)cn34)cc21` ?
> 30 µM

----------
molecular target: Ephrin type-B receptor 1 (Homo sapiens, UniProt P54762)
reported property: IC50

Form: Entry = CN1C(=O)COc2c1cnc1ccc(Sc3nnc4c(F)cc(-c5cnn(C)c5)cn34)cc21 [DALMELITINIB] | System = Ephrin type-B receptor 1 (Homo sapiens, UniProt P54762) | IC50 = ____
> 30 µM

----------
biological target: Protein-tyrosine kinase 6 (Homo sapiens, UniProt Q13882)
pIC50: −log10 of the molar value.
reported property: pIC50

Given the compound CN1C(=O)COc2c1cnc1ccc(Sc3nnc4c(F)cc(-c5cnn(C)c5)cn34)cc21 [DALMELITINIB] , what is its reported pIC50?
< 4.52

----------
target: cAMP-dependent protein kinase catalytic subunit alpha (Homo sapiens, UniProt P17612); experiment: Inhibition of PKACalpha (unknown origin) incubated for 1 hr by spectrophotometric analysis
pIC50: −log10 of the molar value.
reported property: pIC50

Look up pIC50 with cAMP-dependent protein kinase catalytic subunit alpha (Homo sapiens, UniProt P17612) for this molecule: `CN1C(=O)COc2c1cnc1ccc(Sc3nnc4c(F)cc(-c5cnn(C)c5)cn34)cc21`
< 4.52

----------
target: Fibroblast growth factor receptor 3 (Homo sapiens)
reported property: IC50

Enter reported IC50 observed with Fibroblast growth factor receptor 3 (Homo sapiens) for `CN1C(=O)COc2c1cnc1ccc(Sc3nnc4c(F)cc(-c5cnn(C)c5)cn34)cc21`
> 30 µM

----------
target: Tyrosine-protein kinase JAK1 (Homo sapiens)
pIC50: −log10 of the molar value.
reported property: pIC50

Which pIC50 value is on record for CN1C(=O)COc2c1cnc1ccc(Sc3nnc4c(F)cc(-c5cnn(C)c5)cn34)cc21 [DALMELITINIB] ?
< 4.52

----------
assay: Apparent volume of distribution during terminal phase in Sprague-Dawley rat at 5 mg/kg; type: ADME, organism-based; details: in vivo, read-out: Vz/F
reported property: Vd/F

Quick one: Vd/F for `Cn1cc(-c2ccc3nnc(C(F)(F)c4ccc5ncccc5c4)n3n2)cn1` ?
1.48 L/kg

----------
experiment: Half life in Sprague-Dawley rat at 5 mg/kg; format: ADME, organism-based; settings: in vivo
reported property: half-life (h)
Express the result in h but write the number alone.

Request the reported half-life associated with `Cn1cc(-c2ccc3nnc(C(F)(F)c4ccc5ncccc5c4)n3n2)cn1`
2.97

----------
assay: Cytotoxicity against human HCCLM3 cells assessed as reduction in cell survival incubated for 3 days by cell titre-glo assay; format: functional, cell-based; settings: HCCLM3, 72 h
reported property: IC50 (µM)
Lab book: enter the figure in µM, no units written.

Param item = Cn1cc(-c2ccc3nnc(Sc4ccc5ncccc5c4)n3n2)cn1 [SGX-523] ; retrieve measured IC50.
0.024

For CN1C(=O)COc2c1cnc1ccc(Sc3nnc4c(F)cc(-c5cnn(C)c5)cn34)cc21 [DALMELITINIB] then?
0.033

----------
target: Non-receptor tyrosine-protein kinase TYK2 (Homo sapiens)
pIC50: −log10 of the molar value.
reported property: pIC50

// lookup pIC50 for `CN1C(=O)COc2c1cnc1ccc(Sc3nnc4c(F)cc(-c5cnn(C)c5)cn34)cc21`
< 4.52

----------
target: Mitogen-activated protein kinase 1 (Homo sapiens, UniProt P28482); assay: Inhibition of ERK2 (unknown origin) incubated for 1 hr by spectrophotometric analysis
pIC50: −log10 of the molar value.
reported property: pIC50

Any idea what pIC50 came out for `CN1C(=O)COc2c1cnc1ccc(Sc3nnc4c(F)cc(-c5cnn(C)c5)cn34)cc21` on Mitogen-activated protein kinase 1 (Homo sapiens, UniProt P28482)?
< 4.52

----------
target: Tyrosine-protein kinase Lyn (Homo sapiens)
pIC50: −log10 of the molar value.
reported property: pIC50

// pIC50 lookup, key: `CN1C(=O)COc2c1cnc1ccc(Sc3nnc4c(F)cc(-c5cnn(C)c5)cn34)cc21`
< 4.52

----------
target: Hepatocyte growth factor receptor (Homo sapiens, UniProt P08581)
reported property: IC50 (nM)
Report the figure in nM without appending any unit label.

Item under review: `CN1C(=O)COc2c1cnc1ccc(Sc3nnc4c(F)cc(-c5cnn(C)c5)cn34)cc21` . Reported IC50?
0.7

----------
test: Cmax in Sprague-Dawley rat at 5 mg/kg; type: ADME, organism-based; design: dose 5 mg/kg; settings: in vivo
reported property: Cmax (ng/mL)
Give the quantity in ng/mL, number only.

# lookup: Cmax of `Cn1cc(-c2ccc3nnc(C(F)(F)c4ccc5ncccc5c4)n3n2)cn1`
2370

----------
experiment: Mean residence time in Sprague-Dawley rat at 5 mg/kg; type: ADME, organism-based; details: in vivo
reported property: MRT (h)
# unit: h | format: bare number

Item under review: Cn1cc(-c2ccc3nnc(C(F)(F)c4ccc5ncccc5c4)n3n2)cn1 [JNJ-38877605] . Reported MRT?
4.9

----------
Biological target: Aurora kinase A (Homo sapiens, UniProt O14965)
Sequence (O14965 whole entry): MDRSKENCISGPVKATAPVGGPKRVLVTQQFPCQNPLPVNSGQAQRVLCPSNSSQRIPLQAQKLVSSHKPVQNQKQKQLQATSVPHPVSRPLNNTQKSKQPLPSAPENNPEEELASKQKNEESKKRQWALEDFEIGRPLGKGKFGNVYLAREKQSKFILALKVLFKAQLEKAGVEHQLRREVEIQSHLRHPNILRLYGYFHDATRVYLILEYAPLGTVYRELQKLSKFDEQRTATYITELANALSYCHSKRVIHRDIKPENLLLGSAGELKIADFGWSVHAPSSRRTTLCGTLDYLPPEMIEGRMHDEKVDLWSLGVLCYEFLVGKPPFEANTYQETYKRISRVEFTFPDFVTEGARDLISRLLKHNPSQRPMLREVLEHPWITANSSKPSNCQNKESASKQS
pIC50: −log10 of the molar value.
reported property: pIC50

Give pIC50 (Aurora kinase A (Homo sapiens, UniProt O14965)) of the following compound: `CN1C(=O)COc2c1cnc1ccc(Sc3nnc4c(F)cc(-c5cnn(C)c5)cn34)cc21`
< 4.52

----------
biological target: Tyrosine-protein kinase ABL1 (Homo sapiens)
reported property: IC50

Consider the molecule `CN1C(=O)COc2c1cnc1ccc(Sc3nnc4c(F)cc(-c5cnn(C)c5)cn34)cc21` and give its measured IC50.
> 30 µM

----------
Target: Muscle, skeletal receptor tyrosine-protein kinase (Homo sapiens, UniProt O15146)
Sequence (O15146 whole entry): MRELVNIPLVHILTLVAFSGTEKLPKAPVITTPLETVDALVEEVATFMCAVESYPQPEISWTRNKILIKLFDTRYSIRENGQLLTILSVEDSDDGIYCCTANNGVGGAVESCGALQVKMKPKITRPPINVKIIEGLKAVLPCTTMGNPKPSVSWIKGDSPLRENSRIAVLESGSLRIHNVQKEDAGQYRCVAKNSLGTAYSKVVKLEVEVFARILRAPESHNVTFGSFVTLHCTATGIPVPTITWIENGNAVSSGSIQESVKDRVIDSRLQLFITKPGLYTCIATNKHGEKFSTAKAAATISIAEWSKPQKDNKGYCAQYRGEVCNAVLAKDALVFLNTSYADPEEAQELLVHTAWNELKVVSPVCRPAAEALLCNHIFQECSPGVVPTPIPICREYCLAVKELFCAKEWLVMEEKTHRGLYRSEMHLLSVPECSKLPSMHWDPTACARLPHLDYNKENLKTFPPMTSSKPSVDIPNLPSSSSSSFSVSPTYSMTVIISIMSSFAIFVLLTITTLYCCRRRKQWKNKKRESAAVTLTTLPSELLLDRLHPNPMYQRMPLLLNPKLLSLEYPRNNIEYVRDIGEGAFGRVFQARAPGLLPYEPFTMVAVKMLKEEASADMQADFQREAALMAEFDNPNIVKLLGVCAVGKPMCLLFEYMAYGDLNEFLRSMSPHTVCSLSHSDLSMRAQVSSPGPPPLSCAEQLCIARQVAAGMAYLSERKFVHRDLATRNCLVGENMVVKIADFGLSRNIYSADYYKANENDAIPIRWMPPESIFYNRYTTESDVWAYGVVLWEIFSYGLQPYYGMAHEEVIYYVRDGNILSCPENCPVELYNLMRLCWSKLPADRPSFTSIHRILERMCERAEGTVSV
pIC50: −log10 of the molar value.
reported property: pIC50

Data request, read-out pIC50, for `CN1C(=O)COc2c1cnc1ccc(Sc3nnc4c(F)cc(-c5cnn(C)c5)cn34)cc21`
< 4.52
